assay: Circular dichroism, estimate of secondary structure; assay type: physicochemical; details: CD, 100 µM peptide in water, principal component regression analysis
Non-standard residues stand in square brackets, D forms with d. Residues, ends and D or L forms follow the SMILES beside them. Dip = N[C@H](C(=O)O)C(c1ccccc1)c1ccccc1
Reported Turn values follow for various compounds
Just the number in %, nothing appended.

Examples with answers:
N=C(N)NCCC[C@@H]1NC(=O)[C@H](C(c2ccccc2)c2ccccc2)NC(=O)[C@H](CCCNC(=N)N)NC(=O)[C@H](C(c2ccccc2)c2ccccc2)NC(=O)[C@H](CCCNC(=N)N)NC(=O)[C@H](C(c2ccccc2)c2ccccc2)NC(=O)[C@H](CCCNC(=N)N)NC(=O)[C@H](C(c2ccccc2)c2ccccc2)NC(=O)[C@H](CCCNC(=N)N)NC(=O)[C@H](C(c2ccccc2)c2ccccc2)NC1=O [[DipR]5] (cyclo([Dip]R[Dip]R[Dip]R[Dip]R[Dip]R))	16.6
N=C(N)NCCC[C@@H]1NC(=O)[C@H](Cc2c[nH]c3ccccc23)NC(=O)[C@H](CCCNC(=N)N)NC(=O)[C@H](C(c2ccccc2)c2ccccc2)NC(=O)[C@H](CCCNC(=N)N)NC(=O)[C@H](C(c2ccccc2)c2ccccc2)NC(=O)[C@H](CCCNC(=N)N)NC(=O)[C@H](C(c2ccccc2)c2ccccc2)NC(=O)[C@H](CCCNC(=N)N)NC(=O)[C@H](Cc2c[nH]c3ccccc23)NC1=O [[(DipR)3(WR)2]] (cyclo([Dip]R[Dip]R[Dip]RWRWR))	17.0
N=C(N)NCCC[C@@H]1NC(=O)[C@H](Cc2c[nH]c3ccccc23)NC(=O)[C@H](CCCNC(=N)N)NC(=O)[C@H](Cc2c[nH]c3ccccc23)NC(=O)[C@H](CCCNC(=N)N)NC(=O)[C@H](C(c2ccccc2)c2ccccc2)NC(=O)[C@H](CCCNC(=N)N)NC(=O)[C@H](Cc2c[nH]c3ccccc23)NC(=O)[C@H](CCCNC(=N)N)NC(=O)[C@H](Cc2c[nH]c3ccccc23)NC1=O [[(DipR)(WR)4]]	13.8
N=C(N)NCCC[C@@H]1NC(=O)[C@H](Cc2c[nH]c3ccccc23)NC(=O)[C@H](CCCNC(=N)N)NC(=O)[C@H](Cc2c[nH]c3ccccc23)NC(=O)[C@H](CCCNC(=N)N)NC(=O)[C@H](C(c2ccccc2)c2ccccc2)NC(=O)[C@H](CCCNC(=N)N)NC(=O)[C@H](C(c2ccccc2)c2ccccc2)NC(=O)[C@H](CCCNC(=N)N)NC(=O)[C@H](Cc2c[nH]c3ccccc23)NC1=O [[(DipR)2(WR)3]] (cyclo([Dip]R[Dip]RWRWRWR))	12.8

# context switch: different compound, same Turn
What does the record list as Turn for N=C(N)NCCC[C@@H]1NC(=O)[C@H](Cc2c[nH]c3ccccc23)NC(=O)[C@H](CCCNC(=N)N)NC(=O)[C@H](C(c2ccccc2)c2ccccc2)NC(=O)[C@H](CCCNC(=N)N)NC(=O)[C@H](C(c2ccccc2)c2ccccc2)NC(=O)[C@H](CCCNC(=N)N)NC(=O)[C@H](C(c2ccccc2)c2ccccc2)NC(=O)[C@H](CCCNC(=N)N)NC(=O)[C@H](C(c2ccccc2)c2ccccc2)NC1=O [[(DipR)4(WR)]] (cyclo([Dip]R[Dip]R[Dip]R[Dip]RWR)) ?
16.8
